Reference source: PubChem BioAssay AID504329

assayText: H1N1 influenza NS1A inhibitors, functional cell based assay (AID 504329)
assayConditions: percent inhibition, at 12.5 µM, hits give high values
About 1,000 (0.29%) of roughly 340,000 compounds were called active. Only a sample is shown. Potency and affinity values are given separately.
So I've got a bunch of compounds here, and I need their inhibition values.
Answer in %, number only, no unit symbol.

Report inhibition for `COc1ccccc1CNCC(=O)Nc1cc(S(=O)(=O)N2CCCCCC2)ccc1Cl` please. 2.82

Proceed to `COc1ccccc1N1CCN(Cc2cccc(OC)c2O)CC1` 0.66

Proceed to `Cc1ccc(C)c(N(C)S(=O)(=O)c2ccc3[nH]cc(C(=O)NCCN4CCOCC4)c(=O)c3c2)c1` 13.2

Proceed to `COc1ccccc1N1CCN(Cc2cccc(OC)c2OC)CC1` -12

Proceed to `COc1ccccc1N1CCN(Cc2cc3c(cc2Br)OCCO3)CC1` 3.4

Proceed to `Cc1ccc(S(=O)(=O)N2CCOCC2)cc1NC(=O)CNCc1ccccc1Cl` -1.72
